The following compounds are listed with their measured MIC values.
# System: E. faecalis VRE 6
# test summary: MIC, broth microdilution, vancomycin-resistant E. faecalis VRE 6 (VanA)
# Format: cell-based, Enterococcus faecalis
# test conditions: Enterococcus faecalis VRE 6 (vancomycin-resistant); read-out: MIC
value type: MIC (µM)

INSERT INTO assay_data (compound, value_type, value_qualifier, endpoint_result) VALUES
  ('CNC(CC(C)C)C(=O)NC1C(=O)NC(CC(N)=O)C(=O)NC2C(=O)NC3C(=O)NC(C(=O)NC(C(=O)NCCCNC(=O)c4ccc5cc(NS(=O)(=O)c6ccc(C(C)C)cc6)ccc5c4)c4cc(O)cc(O)c4-c4cc3ccc4O)C(O)c3ccc(c(Cl)c3)Oc3cc2cc(c3OC2OC(CO)C(O)C(O)C2OC2CC(C)(N)C(O)C(C)O2)Oc2ccc(cc2Cl)C1O (centres unmarked)', 'MIC', '=', 1.56),
  ('CNC(CC(C)C)C(=O)NC1C(=O)NC(CC(N)=O)C(=O)NC2C(=O)NC3C(=O)NC(C(=O)NC(C(=O)NCCCNC(=O)c4ccc5cc(OC)ccc5c4)c4cc(O)cc(O)c4-c4cc3ccc4O)C(O)c3ccc(c(Cl)c3)Oc3cc2cc(c3OC2OC(CO)C(O)C(O)C2OC2CC(C)(N)C(O)C(C)O2)Oc2ccc(cc2Cl)C1O (centres unmarked)', 'MIC', '=', 1.56),
  ('CN[C@H](CC(C)C)C(=O)N[C@H]1C(=O)N[C@@H](CC(N)=O)C(=O)N[C@H]2C(=O)N[C@H]3C(=O)N[C@H](C(=O)N[C@H](C(=O)NCC(=O)Nc4ccc5cc6ccccc6cc5c4)c4cc(O)cc(O)c4-c4cc3ccc4O)[C@H](O)c3ccc(c(Cl)c3)Oc3cc2cc(c3O[C@@H]2O[C@H](CO)[C@@H](O)[C@H](O)[C@H]2O[C@H]2C[C@](C)(N)[C@H](O)[C@H](C)O2)Oc2ccc(cc2Cl)[C@H]1O', 'MIC', '=', 1.56),
  ('CNC(CC(C)C)C(=O)NC1C(=O)NC(CC(N)=O)C(=O)NC2C(=O)NC3C(=O)NC(C(=O)NC(C(=O)NCC(=O)Nc4ccc(C(=O)c5ccccc5)cc4)c4cc(O)cc(O)c4-c4cc3ccc4O)C(O)c3ccc(c(Cl)c3)Oc3cc2cc(c3OC2OC(CO)C(O)C(O)C2OC2CC(C)(N)C(O)C(C)O2)Oc2ccc(cc2Cl)C1O (centres unmarked)', 'MIC', '=', 1.56),
  ('CCCCCCCC[N+](C)(C)CCCNC(=O)c1ccc(NC(=O)CNC(=O)C2NC(=O)C3NC(=O)C(NC(=O)C4NC(=O)C(CC(N)=O)NC(=O)C(NC(=O)C(CC(C)C)NC)C(O)c5ccc(c(Cl)c5)Oc5cc4cc(c5OC4OC(CO)C(O)C(O)C4OC4CC(C)(N)C(O)C(C)O4)Oc4ccc(cc4Cl)C3O)c3ccc(O)c(c3)-c3c(O)cc(O)cc32)cc1 (centres unmarked)', 'MIC', '≤', 0.39),
  ('CNC(CC(C)C)C(=O)NC1C(=O)NC(CC(N)=O)C(=O)NC2C(=O)NC3C(=O)NC(C(=O)NC(C(=O)NCCCNC(=O)c4ccc(-c5ccc(F)cc5)cc4)c4cc(O)cc(O)c4-c4cc3ccc4O)C(O)c3ccc(c(Cl)c3)Oc3cc2cc(c3OC2OC(CO)C(O)C(O)C2OC2CC(C)(N)C(O)C(C)O2)Oc2ccc(cc2Cl)C1O (centres unmarked)', 'MIC', '=', 0.39),
  ('CN[C@H](CC(C)C)C(=O)N[C@H]1C(=O)N[C@@H](CC(N)=O)C(=O)N[C@H]2C(=O)N[C@H]3C(=O)N[C@H](C(=O)N[C@H](C(=O)NCC(=O)Nc4ccc(OC)cc4)c4cc(O)cc(O)c4-c4cc3ccc4O)[C@H](O)c3ccc(c(Cl)c3)Oc3cc2cc(c3O[C@@H]2O[C@H](CO)[C@@H](O)[C@H](O)[C@H]2O[C@H]2C[C@](C)(N)[C@H](O)[C@H](C)O2)Oc2ccc(cc2Cl)[C@H]1O', 'MIC', '=', 6.25),
  ('C#Cc1ccc(-c2ccc(C(=O)NCCCNC(=O)[C@H]3NC(=O)[C@H]4NC(=O)[C@H](NC(=O)[C@@H]5NC(=O)[C@H](CC(N)=O)NC(=O)[C@H](NC(=O)[C@@H](CC(C)C)NC)[C@H](O)c6ccc(c(Cl)c6)Oc6cc5cc(c6O[C@@H]5O[C@H](CO)[C@@H](O)[C@H](O)[C@H]5O[C@H]5C[C@](C)(N)[C@H](O)[C@H](C)O5)Oc5ccc(cc5Cl)[C@H]4O)c4ccc(O)c(c4)-c4c(O)cc(O)cc43)cc2)cc1', 'MIC', '=', 0.78),
  ('CNC(CC(C)C)C(=O)NC1C(=O)NC(CC(N)=O)C(=O)NC2C(=O)NC3C(=O)NC(C(=O)NC(C(=O)NCCNC(=O)C=Cc4ccc(NS(=O)(=O)c5ccc(Cl)cc5)cc4)c4cc(O)cc(O)c4-c4cc3ccc4O)C(O)c3ccc(c(Cl)c3)Oc3cc2cc(c3OC2OC(CO)C(O)C(O)C2OC2CC(C)(N)C(O)C(C)O2)Oc2ccc(cc2Cl)C1O (centres unmarked)', 'MIC', '=', 3.13),
  ('CN[C@H](CC(C)C)C(=O)N[C@H]1C(=O)N[C@@H](CC(N)=O)C(=O)N[C@H]2C(=O)N[C@H]3C(=O)N[C@H](C(=O)N[C@H](C(=O)NCCNC(=O)/C=C/c4ccc(Cl)cc4Cl)c4cc(O)cc(O)c4-c4cc3ccc4O)[C@H](O)c3ccc(c(Cl)c3)Oc3cc2cc(c3O[C@@H]2O[C@H](CO)[C@@H](O)[C@H](O)[C@H]2O[C@H]2C[C@](C)(N)[C@H](O)[C@H](C)O2)Oc2ccc(cc2Cl)[C@H]1O', 'MIC', '=', 6.25),
  ('CNC(CC(C)C)C(=O)NC1C(=O)NC(CC(N)=O)C(=O)NC2C(=O)NC3C(=O)NC(C(=O)NC(C(=O)NCCNC(=O)C=Cc4ccccc4)c4cc(O)cc(O)c4-c4cc3ccc4O)C(O)c3ccc(c(Cl)c3)Oc3cc2cc(c3OC2OC(CO)C(O)C(O)C2OC2CC(C)(N)C(O)C(C)O2)Oc2ccc(cc2Cl)C1O (centres unmarked)', 'MIC', '=', 1.56);
